TARGET OF ASSAY: Neuronal acetylcholine receptor; alpha4/beta2 (Rattus norvegicus, UniProt P09483+P12390)
Sequence (P09483 whole entry): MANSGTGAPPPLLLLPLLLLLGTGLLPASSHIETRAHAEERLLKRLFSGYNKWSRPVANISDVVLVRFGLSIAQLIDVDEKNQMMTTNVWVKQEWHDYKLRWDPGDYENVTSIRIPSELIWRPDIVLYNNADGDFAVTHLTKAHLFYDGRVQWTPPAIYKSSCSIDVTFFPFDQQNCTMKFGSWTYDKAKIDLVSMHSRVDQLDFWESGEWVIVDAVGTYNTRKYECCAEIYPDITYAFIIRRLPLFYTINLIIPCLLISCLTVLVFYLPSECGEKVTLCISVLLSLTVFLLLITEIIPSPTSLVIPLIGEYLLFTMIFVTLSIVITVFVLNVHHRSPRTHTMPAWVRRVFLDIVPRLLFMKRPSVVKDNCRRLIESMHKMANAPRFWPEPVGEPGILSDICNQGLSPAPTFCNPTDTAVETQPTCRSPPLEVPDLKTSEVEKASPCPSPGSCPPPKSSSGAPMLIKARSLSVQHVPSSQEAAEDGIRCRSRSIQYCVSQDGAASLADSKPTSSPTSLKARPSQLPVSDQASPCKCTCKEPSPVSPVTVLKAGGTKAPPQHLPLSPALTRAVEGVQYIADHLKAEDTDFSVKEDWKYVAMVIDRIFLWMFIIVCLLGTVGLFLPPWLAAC
Sequence (P12390 whole entry): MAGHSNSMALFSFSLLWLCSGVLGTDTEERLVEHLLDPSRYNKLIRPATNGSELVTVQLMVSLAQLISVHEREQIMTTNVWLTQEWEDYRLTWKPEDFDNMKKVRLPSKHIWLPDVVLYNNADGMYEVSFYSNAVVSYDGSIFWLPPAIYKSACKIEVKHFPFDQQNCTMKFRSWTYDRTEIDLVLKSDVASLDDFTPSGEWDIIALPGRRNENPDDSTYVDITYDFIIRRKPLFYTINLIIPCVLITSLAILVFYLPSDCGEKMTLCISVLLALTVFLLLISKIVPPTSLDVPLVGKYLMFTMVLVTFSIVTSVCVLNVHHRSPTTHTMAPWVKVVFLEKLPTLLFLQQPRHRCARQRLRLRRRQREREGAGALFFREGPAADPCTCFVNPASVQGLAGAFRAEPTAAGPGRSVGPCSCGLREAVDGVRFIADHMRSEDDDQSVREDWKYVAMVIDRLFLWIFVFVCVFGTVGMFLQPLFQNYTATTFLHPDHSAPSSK
EXPERIMENT NOTES: Binding affinity to rat cortex Nicotinic acetylcholine receptor alpha4-beta2 using [3H]nicotine
pKi: −log10 of the molar value.

| MOLECULE | pKi |
| --- | --- |
| c1ccc(-c2cccc3c2C2CNCC3C2)cc1 (stereo unspecified) | < 6.30 |

---

Some compounds, each annotated with its measured pKi.
TARGET OF ASSAY: Neuronal acetylcholine receptor; alpha4/beta2 (Rattus norvegicus, UniProt P09483+P12390)
EXPERIMENT NOTES: Binding affinity to rat cortex Nicotinic acetylcholine receptor alpha4-beta2 using [3H]-nicotine
pKi: −log10 of the molar value.

| COMPOUND | pKi |
| --- | --- |
| Clc1ccc2cc3c(cc2n1)C1CNCC3C1 (stereo unspecified) | 9.57 |
| Clc1ccc(-c2cnc3cc4c(cc3n2)C2CNCC4C2)cc1 (stereo unspecified) | 7.11 |
| Clc1ccc(-c2cnc3cc4c(cc3n2)C2CNCC4C2)c(Cl)c1 (stereo unspecified) | 7.06 |
| O=c1ccc2cc3c(cc2[nH]1)C1CNCC3C1 (stereo unspecified) | 8.07 |
| CC(C)c1nc2cc3c(cc2o1)C1CNCC3C1 (stereo unspecified) | 8.12 |
| CCc1cnc2cc3c(cc2c1)C1CNCC3C1 (stereo unspecified) | 8.92 |
| c1cnc2cc3c(cc2c1)C1CNCC3C1 (stereo unspecified) | 8.80 |
| c1cc2cc3c(cc2cn1)C1CNCC3C1 (stereo unspecified) | 8.64 |
| c1ccc(Cc2nc3cc4c(cc3o2)C2CNCC4C2)cc1 (stereo unspecified) | 7.00 |
| c1ccc(-c2nc3cc4c(cc3[nH]2)C2CNCC4C2)cc1 (stereo unspecified) | 7.85 |
| Clc1ccc2c(c1)C1CNCC2C1 (stereo unspecified) | 8.80 |
| Cc1ccc2cc3c(cc2n1)C1CNCC3C1 (stereo unspecified) | 9.12 |
| COc1ccc(-c2cnc3cc4c(cc3n2)C2CNCC4C2)cc1 (stereo unspecified) | 7.59 |
| COc1ccc2cc3c(cc2n1)C1CNCC3C1 (stereo unspecified) | 7.52 |
| c1c[nH]c(-c2ccc3c(c2)C2CNCC3C2)c1 (stereo unspecified) | 7.17 |
| c1ccc(-c2cnc3cc4c(cc3c2)C2CNCC4C2)cc1 (stereo unspecified) | 6.88 |
